tested.target: MICA*004 on HCC1534 cells (human, UniProt Q29983 24-383)
measurement.notes: cell-based or functional assay
I'd appreciate it if you could supply % max inhibition of shedding values for the items below.

Examples with answers:
binder	% max inhibition of shedding
7D4.6 (antibody, V domains shown, Mouse hybridoma antibody; constant regions differ by assay) VH: DVQLQESGPGLVKPSQSLSLTCTVTGYSITSDYAWNWIRQFPRNKLEWMGYINYSGTTNYNPSLKSRISITRDTSKNQFFLQLISVTTEDTATYYCSYYRYDGAWFPYWGQGTLVTVSA VL: DIQMTQSPASLSASVGETVTITCRASGNIHNYLAWYQQKQGKSPQLLVYNAIMLADGVPSRFSASGSGTQYSLKINSLQPEDFGSYYCQHFWSFPLTFGAGTKVEIK	63%
15F11 (antibody, V domains shown, Mouse variable domains; constant regions differ by assay) VH: EIQLQQSGPELVKPGASVRVSCKPSGYAFTSNNIYWVKQSRRKSLEWIGYIDPYIGRIIYNQQFKDKATLTVDKSSSTAYMHLNSLTSEDSAVYYCSRSGERSNFDYWGQGTTLTVSS VL: EIVLTQSPTAMAASPGEKITITCSASSSISSNYLHWYQQKPGFSPKLLIYRTSNLASGVPARFSGSGSGTSYSLTIGPMEAEDVATYYCQQGGSLPLTFGAGTKVEIK	86%

The binder listed as 7A3.1.9 (antibody, V domains shown, Mouse hybridoma antibody; constant regions differ by assay) VH: QVQLKESGPGLVAPSQSLSITCTVSGFALTGSGVNWVRQPPGKGLEWLGMIWGDGNTDYNSALKSRLSISKDNSKSQIFLKMNSLQTDDTARYYCARGAHYGKRWYFDVWGAGTTVTVSS VL: DIQMTQTTSSLSASLGDRVTISCSASQGINNYLNWYQQKPDGTVKLLIYYTSSLPSGVPSRFSGSGSGTDYSLTISNLEPEDIATYYCQQYSKLPPTFGGGTKVEIK shows % max inhibition of shedding equal to 50%
